# system: extracellular domain of the FGFR2b protein (NP_075259.4) (UniProt P21802)
# Sequence (P21802 other isoform, or with tags, fused parts or gaps): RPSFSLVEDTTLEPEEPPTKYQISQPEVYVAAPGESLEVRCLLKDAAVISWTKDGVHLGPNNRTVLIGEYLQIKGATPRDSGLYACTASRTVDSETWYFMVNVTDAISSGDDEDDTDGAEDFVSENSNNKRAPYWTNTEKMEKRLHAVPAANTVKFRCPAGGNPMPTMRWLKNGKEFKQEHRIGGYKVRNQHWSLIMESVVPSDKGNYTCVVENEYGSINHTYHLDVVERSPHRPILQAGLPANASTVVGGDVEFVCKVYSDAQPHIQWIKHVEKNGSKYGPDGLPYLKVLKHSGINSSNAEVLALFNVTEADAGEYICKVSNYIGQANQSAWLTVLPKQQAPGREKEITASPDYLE
# protocol: phage ELISA
endpoint name: OD (450 nm) value
Form: value (number only, do not type unit).

Solved entries:
[[record]]
binder = "3F10 scFv displayed on phage (scFv) scFv: EVQLQQSGAELVKPGASVKMSCKASGYTFSFYNIHWVRQTPGQGLEWIGLIYPDNGDTSYNQKFKAKATLTADKSSSTAYMQLSSLTSEDSAVYYCARGGFDYWGQGTTLTVSSGGGGSGGGGSGGGGSDVLMTQSPASLSASVGETVTITCGASENIYGALNWYQRKQGKSPQLLIYGATNLADGMSSRFSGSGSGRQYSLKISSLHPDDVATYYCQNVLSTPYTFGGGTKLEIK"
observed_measurement = 1.85

[[record]]
binder = "3G10 scFv displayed on phage (scFv) scFv: EVQLQQSGPELVKPGASVKMSCKASGYTFATYNMHWVKQTTGQGLEWIGAIYPDNGDTFYNRKFKDKATLTADKSSTTAYMQLSSLTSEDSAVYYCARGDFAYWGQGTLVTVSAGGGGSGGGGSGGGGSDVLMTQSPASLSASVGETVTITCGASENIYGALNWYQRKQGKSPQLLIYGATNLADGMSSRFSGSGSGRQYSLKISSLHPDDVATYYCQNVLSTPYTFGGGTKLEMK"
observed_measurement = 1.95

[[record]]
binder = "3H6 scFv displayed on phage (scFv) scFv: QVQLQQSGAELVKPGASVKMSCKASGYTFSFYNIHWVRQTPGQGLEWIGLIYPDNGDTSYNQKFKAKATLTADKSSSTAYMQLSSLTSEDSAVYYCARGGFDYWGQGTTLTVSSGGGGSGGGGSGGGGSDIQMTQSPASLSASVGETVTITCRASENIYSYLAWYQQKQGKSPQLLVYNAKTLAEGVPSRFSGSGSGTQFSLKINSLQPEDFGSYYCQHHYGTPYTFGGGTKLEMK"
observed_measurement = 2.29


Endpoint output: OD (450 nm) value of 3D6 scFv displayed on phage (scFv) scFv: QVQLQQSGAELVKPGASVKMSCKASGYTFRYYNMHWVKRTPGQGLEWIGLIYPDNGDTSYNQKFKGKATLTADTSSSTAYMQLSSLTSEDSAVYYCARGGLDYWGQGTSLTVSSGGGGSGGGGSGGGGSDIQMTQSPASLSVSVGETVTITCRASENIYSNLAWYQQKQGKSPQLLVYNAKTLADGVPSRFSGSGSGTQYSLKINSLQPEDFGSYYCQHFWSTPFTFGSGTKLELK . Value?
1.92

Same question, 3E2 scFv displayed on phage (scFv) scFv: EIQLQQSGAELVKPGASVKMSCKASGYTFSFYNMHWVKRTPGQGLEWIGLIYPDNGDTSYNQKFKGKATLTADTSSSTAYMQLSSLTSEDSAVYYCARGGLDYWGQGTSLTVSSGGGGSGGGGSGGGGSNIVMTQSQKFMSTSVGDRVSVTCKASQNVGTNVAWYQQKPGQSPKALIYSASYRYTGVPDRFTGSGSGTDFTFTISSVQAEDLAVYYCQQHYSTPYTFGGGTKLEIK this time
1.87

Same question, 3H9 scFv displayed on phage (scFv) scFv: EIQLQQSGAELVKPGASVKMSCKASGYTFSFYNMHWVKRTPGQGLEWIGLIYPDNGDTSYNQKFKGKATLTADTSSSTAYMQLSSLTSEDSAVYYCARGGLDYWGQGTTLTVSSGGGGSGGGGSGGGGSDIVLTQSPASLSVSVGETVTITCRASENIYSNLAWYQQKQGKSPQLLVYAATNLADGVPSRFSGSGSGTQYSLKINSLQSEDFGSYYCQHFWGTPYTFGGGTKLELK this time
2.22

Data provenance is patent EP4714976A1.
